Molecular target: T1, human ferroportin (SLC40A1) fused in frame with GFP, stably expressed in HEK293 cells (human, UniProt Q9NP59 1-571)
T1 sequence (looked up): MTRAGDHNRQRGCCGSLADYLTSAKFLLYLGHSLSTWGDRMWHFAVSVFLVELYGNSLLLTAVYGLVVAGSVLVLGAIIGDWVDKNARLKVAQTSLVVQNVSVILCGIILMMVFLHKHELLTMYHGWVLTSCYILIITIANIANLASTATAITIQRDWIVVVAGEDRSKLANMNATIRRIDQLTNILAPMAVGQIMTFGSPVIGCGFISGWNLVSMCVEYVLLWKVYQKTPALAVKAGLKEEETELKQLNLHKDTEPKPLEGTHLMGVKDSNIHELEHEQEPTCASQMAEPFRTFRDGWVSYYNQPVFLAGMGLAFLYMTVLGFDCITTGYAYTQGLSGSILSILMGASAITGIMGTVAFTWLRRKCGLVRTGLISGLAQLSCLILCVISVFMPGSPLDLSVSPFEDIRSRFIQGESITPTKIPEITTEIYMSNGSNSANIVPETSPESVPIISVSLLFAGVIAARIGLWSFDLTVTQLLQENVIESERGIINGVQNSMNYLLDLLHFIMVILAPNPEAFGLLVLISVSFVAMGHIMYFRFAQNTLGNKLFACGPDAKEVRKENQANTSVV
Experiment: cell-based or functional assay
Primed or numbered codes have the meaning given here. Side chains are listed from the residue outwards. * marks the point of attachment. Palmitoyl = CCCCCCCCCCCCCCCC(=O)*; Isovaleryl = CC(C)CC(=O)*; PEG3′ = not defined here
Please go through the items and note down their Potency EC50.
The answer is to be given in nM; state only the numeric part.

Lookup: Which measured Potency EC50 value corresponds to H-VDTHFPCIKFGPRSKGWVCK-NH2 (cysteine pairing not given here) [Compound 164] ?
Found: 146

Lookup: Which Potency EC50 value belongs to H-DAHFPCIIF-NH2 [Compound 52] ?
Found: 388

Lookup: May I ask what Potency EC50 has been recorded for Isovaleryl-DTHFPCIKFGPRSKGWVCK([PEG3′-Palmitoyl])-NH2 (cysteine pairing not given here) [Compound 203] ?
Found: 4

Lookup: Given the binder Isovaleryl-DTHFPCIK(Palmitoyl)FGPRSKGWVCK-NH2 (cysteine pairing not given here) [Compound 194] , what is its reported Potency EC50?
Found: 4

Lookup: I'd like to know its Potency EC50. The binder in question is Isovaleryl-DTHFPCIIFEPRSKGWVCK-NH2 (not fully specified (bridges); cysteine pairing not given here) [Compound 105]
Found: 10

Lookup: Entry H-DTHAPICIFGPRSKGWVCM-NH2 (cysteine pairing not given here) [Compound 38] has what Potency EC50?
Found: 254

Lookup: Quick one: Potency EC50 for Isovaleryl-DTHFPCIKFC-NH2 (cysteine pairing not given here) [Compound 193] ?
Found: 80

Lookup: Given DTHFPCIKFKPRSKGWVCK (N-terminal isovaleric acid; PEG8 on side chain of Lys 10; C-terminal amide) [Compound 150] , state its recorded Potency EC50.
Found: 7

Lookup: Requested read-out: Potency EC50. Entry: H-DTAFPICIFGPRSKGWVCM-NH2 (cysteine pairing not given here) [Compound 60]
Found: 498

Lookup: Any idea what Potency EC50 was measured for H-DTHFPICIAGPRSKGWVCM-NH2 (cysteine pairing not given here) [Compound 67] ?
Found: 2470
